System: human prostate cancer cells PC3
Test: MTT assay, polyamine analogs, PC3
Type: cell-based
Settings: PC-3, survival of cultured PC3 cells, figure legends, read-out: ED50 (the source's name)
pEC50: −log10 of the molar value.
measured_attribute: pEC50

Entry CCNCCCCNCC1CCC1CNCCCCNCC (centres unmarked) — recorded pEC50 = 5.60

Entry CCNC/C=C\CNC/C=C\CNCCCCNCC — recorded pEC50 = < 4.51

Entry CCNCCCNCc1ccccc1CNCCCNCC — recorded pEC50 = < 4.51

Entry CCNCCCCNCC1CC1CNCCCCNCC (centres unmarked) — recorded pEC50 = 5.80

Entry CCNCCCCNCc1ccccc1CNCCCCNCC — recorded pEC50 = < 4.51

Entry CCNCCCCNC/C=C\CNCCCCNCC — recorded pEC50 = < 4.51

Entry CCNCCCNCC1CCCC1NCCCNCC (centres unmarked) — recorded pEC50 = < 4.51

Entry CCNC/C=C\CNC/C=C\CNC/C=C\CNCC — recorded pEC50 = 5.66

---

Exercise: state measured EC50 for each of the molecules provided.
Tested on: human prostate cancer cells DU145
Test: MTT assay, polyamine analogs, DU145
Type: cell-based
Details: Homo sapiens, DU-145, survival of cultured DU145 cells, figure legends; read-out: ED50 (the source's name)
Dear colleague, please return just the value in µM, with no unit written.

Entry CCNC/C=C\CNC/C=C\CNC/C=C\CNCC — recorded EC50 = 0.13

Entry CCNC/C=C\CNC/C=C\CNCCCCNCC — recorded EC50 = 0.08

Entry CCNCCCCNC/C=C\CNCCCCNCC — recorded EC50 = 0.03

Entry CCNCCCNCC1CCCC1NCCCNCC (centres unmarked) — recorded EC50 = 1.6

Entry CCNCCCNCc1ccccc1CNCCCNCC — recorded EC50 = 15.4

Entry CCNCCCCNCc1ccccc1CNCCCCNCC — recorded EC50 = 9.4

Entry CCNCCCCNCC1CC1CNCCCCNCC (centres unmarked) — recorded EC50 = 0.016

Entry CCNCCCCNCC1CCC1CNCCCCNCC (centres unmarked) — recorded EC50 = 0.014

---

Test system: human prostate cancer cells LNCAP
Assay: MTT assay, polyamine analogs, LNCAP
Type: cell-based
Conditions: Homo sapiens, LNCaP, survival of cultured LNCAP cells, figure legends; read-out: ED50 (the source's name)
Exercise: state measured pEC50 for each of the compounds provided.
Scale: pEC50 equals -log10([C]), with [C] in mol/L.

Entry CCNC/C=C\CNC/C=C\CNC/C=C\CNCC [SL-11108] — recorded pEC50 = 5.11

Entry CCNCCCCNCC1CC1CNCCCCNCC (centres unmarked) [SL-11093] — recorded pEC50 = 6.68

---

Exercise: state measured IC50 for each of the compounds provided.
Test system: human breast cancer cells MCF7
Experiment: MTT assay, polyamine analogs, MCF7
Assay type: cell-based
Conditions: MCF7, 144 h, read-out: concentration needed for 50% growth inhibition (ID50) MCF7, Table 2, MTT six days after drug treatment

Entry CCNCCCCNCc1ccccc1CNCCCCNCC [SL-11104] — recorded IC50 = > 31.2 µM

Entry CCNCCCCNCC1CCC1CNCCCCNCC (stereo not drawn) [SL-11099] — recorded IC50 = 26.3 µM

Entry CCNCCCNCc1ccccc1CNCCCNCC [SL-11094] — recorded IC50 = > 31.2 µM

Entry CCNCCCNCC1CCCC1NCCCNCC (stereo not drawn) [SL-11105] — recorded IC50 = > 31.2 µM

Entry CCNC/C=C\CNC/C=C\CNC/C=C\CNCC [SL-11108] — recorded IC50 = > 31.2 µM

Entry CCNCCCCNC/C=C\CNCCCCNCC [SL-11102] — recorded IC50 = > 31.2 µM

---

System: human prostate adenocarcinoma cell line PC-3
Assay: MTT assay, quinones, PC-3
Assay type: cell-based
Details: Table 3, treatment time not given in cell, read-out: ID50 PC-3
measured_attribute: pIC50
Scale: pIC50 equals -log10([C]), with [C] in mol/L.

Entry O=C1C=C(OCCCCCCO)c2ccccc2C1=O — recorded pIC50 = 4.77

Entry O=C1C=C(OCCCCCNc2c3ccccc3nc3ccccc23)c2ccccc2C1=O — recorded pIC50 = 5.37

Entry O=C1C=C(OCCCCCCCc2ccc(Nc3c4ccccc4nc4ccccc34)cc2)c2ccccc2C1=O — recorded pIC50 = 6.15

---

Tested on: human prostate cancer cells DUPRO
Experiment: MTT assay, polyamine analogs, DUPRO
Assay type: cell-based
Conditions: survival of cultured DUPRO cells, figure legends; read-out: ED50 (the source's name)
measured_attribute: EC50 (nM)
Dear colleague, please return just the value in nM, with no unit written.

Entry CCNCCCCNCCCCNCCCCNCCCCNC/C=C\CNCCCCNCCCCNCCCCNCCCCNCC [SL-11150] — recorded EC50 = 480

---

Test system: human prostate cancer cells DUPRO
Assay: MTT assay, polyamine analogs, DUPRO
Type: cell-based
Conditions: Homo sapiens, DuPro, 144 h, read-out: concentration needed for 50% growth inhibition (ID50) DUPRO, Table 2, MTT six days after drug treatment
measured_attribute: pIC50
Scale: pIC50 equals -log10([C]), with [C] in mol/L.

Entry CCNCCCCNCC1CC1CNCCCCNCC (centres unmarked) — recorded pIC50 = 7.10

Entry CCNCCCCNC/C=C\CNCCCCNCC — recorded pIC50 = 6.82

Entry CCNC/C=C\CNC/C=C\CNC/C=C\CNCC — recorded pIC50 = 6.01

Entry CCNC/C=C\CNC/C=C\CNCCCCNCC — recorded pIC50 = 6.36

---

Test system: human prostate adenocarcinoma cell line PC-3
Assay: MTT assay, quinones, PC-3
Assay type: cell-based
Details: Table 5, non-quinone structure, read-out: ID50 PC-3
measured_attribute: IC50

Entry CN1CCN(c2ccc3nc(-c4ccc5nc(-c6ccc(O)cc6)[nH]c5c4)[nH]c3c2)CC1 — recorded IC50 = > 31.2 µM

---

System: human prostate adenocarcinoma cell line PC-3
Experiment: MTT assay, quinones, PC-3
Type: cell-based
Settings: Table 3, treatment time not given in cell, read-out: ID50 PC-3
measured_attribute: pIC50
Scale: pIC50 equals -log10([C]), with [C] in mol/L.

Entry NCCCCCC(=O)OCCCCCCOC1=CC(=O)C(=O)c2ccccc21 [SL-11075] — recorded pIC50 = 5.70

Entry N#Cc1ccc(OCCCCCCOC2=CC(=O)C(=O)c3ccccc32)cc1 [SL-11062] — recorded pIC50 = 5.77

Entry CCCCN(CC1=CC(=O)C(=O)c2ccccc21)C(=O)CCC(=O)N1CCOCC1 [SL-11096] — recorded pIC50 = 5.44

Entry O=C1C=C(CCCCCCCCc2ccc(Nc3c4ccccc4nc4ccccc34)cc2)c2ccccc2C1=O [SL-11125, Quinone-acridine] — recorded pIC50 = 5.23

Entry CN(C)c1cccc(OC(=O)CCCCOC2=CC(=O)C(=O)c3ccccc32)c1 [SL-11074] — recorded pIC50 = 5.34

Entry O=C1C=C(OCCCCCCOC2=CC(=O)c3ccccc3C2=O)c2ccccc2C1=O [SL-11065] — recorded pIC50 = 5.85

Entry CCCCN(CC1=CC(=O)C(=O)c2ccccc21)C(C)=O [SL-11087] — recorded pIC50 = 5.62

Entry CCCCN/C=C1\C=C(O)C(=O)c2ccccc21 [SL-11089] — recorded pIC50 = 4.96

Entry O=C1C=C(OCCCCCCOc2ccccc2)c2ccccc2C1=O [SL-11068] — recorded pIC50 = 5.82

---

Test system: malignant glioma cell line, U251MG NCI
Test: MTT assay, quinones, U251MG NCI
Type: cell-based, human
Conditions: Homo sapiens, U-251; Table 4, treatment time not given in cell; read-out: ID50 Brain U251-MG
measured_attribute: IC50

Note to self: IC50 of O=C1C=C(OCCCCCNC2CCCCC2)c2ccccc2C1=O [SL-11060] with malignant glioma cell line, U251MG NCI was > 31.2 µM
